tested on: NCI-H460 lung; assay: NCI tumour cell line growth inhibition, 48 h
Reported TGI is given for each of the following molecules.

Short answer on NCI-H460 lung for `Cn1c(=O)c2c(nc(Nc3ccc(Cl)cc3)n3c(=O)n(-c4ccccc4)c(=O)n23)n(C)c1=O` , TGI: > 100 µM

Short answer on NCI-H460 lung for `C(=C\c1cc(-c2ccc3ccccc3n2)nc2ccc3ccccc3c12)/c1ccc2ccccc2n1` , TGI: > 100 µM

Short answer on NCI-H460 lung for `c1ccc(-c2cc(-c3cccs3)c(-c3cccs3)o2)cc1` , TGI: > 100 µM

Short answer on NCI-H460 lung for `CC(C)c1ccc(NC(=S)NC(=O)c2ccccc2)cc1` , TGI: 40.2 µM

Short answer on NCI-H460 lung for `Clc1c(C(Cl)(Cl)Cl)nsc1N1CCCCC1` , TGI: > 100 µM

Short answer on NCI-H460 lung for CC(NC(=O)C(N)CC(=O)O)NC(=O)N(C)C(C)(C)C (stereo unspecified) , TGI: > 100 µM

Short answer on NCI-H460 lung for `N#C/C(=C\c1ccc(Br)cc1)n1nnc2ccccc21` , TGI: 3.82 µM

Short answer on NCI-H460 lung for `COc1ccc2cc(C(=O)NCCCNC(=O)c3ccc4cc(OC)ccc4c3)ccc2c1` , TGI: > 100 µM

Short answer on NCI-H460 lung for `CC1(CC2=C(C(=O)NCCO[Si](C)(C)C(C)(C)C)C3(OCCO3)C2=O)OCCO1` , TGI: > 100 µM

Short answer on NCI-H460 lung for `O=c1cc(N=Nc2ccc(Cl)cc2)[nH]c(=O)[nH]1` , TGI: 12.2 µM

Short answer on NCI-H460 lung for `COc1cc2c(cc1OCCCCOc1ccc(-c3nc4ccccc4s3)cc1)N=C[C@@H]1CCCN1C2=O` , TGI: 4.06 µM

---

test system: HOP-92 NSCLC; assay: NCI tumour cell line growth inhibition, 48 h
property: TGI (µM)
Report as a plain number; the unit µM is understood.

Sample answers from the record:
Cn1cnc([N+](=O)[O-])c1Sc1nnnn1-c1ccccc1 ... 13
N#Cc1ccc(Oc2nc3ccc(C(F)(F)F)cc3nc2-c2ccccc2)cc1 ... 27.5
COc1cc2c(cc1OCCCC(=O)Nc1cc(C(=O)NCCCN(C)C)n(C)n1)N=CC1CCCN1C2=O (stereo not drawn) ... 13.2
O=C(Nc1ccccc1)Nc1cccc(Oc2nnc(Cl)c3ccccc23)c1 ... 11.3

Query molecule follows.
TGI recorded for this molecule, `CC(C)C(=O)/C=C/c1ccc(Cl)c(Cl)c1` , is 34.7

---

tested on: DMS 273 small cell lung; test: NCI tumour cell line growth inhibition, 48 h
property: TGI

Sample answers from the record:
COc1cc(Nc2nc3ccc(C(F)(F)F)cc3nc2-c2ccccc2)cc(OC)c1OC ... > 100 µM
C=C1C(=O)OC2CC(C)C3C=CC(=O)C3CC12 (stereo not drawn) ... 12.2 µM
Cc1c(N=Cc2ccc(N(CCC#N)CCC#N)cc2)c(=O)n(-c2ccccc2)n1C ... > 100 µM
O=c1c2ccccc2nc(-c2cccc(Cl)c2)n1NCC1(O)OCC(O)C(O)C1O (stereo not drawn) ... > 100 µM
CCOC(=O)/C(=C\c1ccc[nH]1)C(=O)c1ccccc1 ... > 100 µM

TGI recorded for this molecule, `COc1cc2c(c(OC)c1OC)-c1ccc(OC)c(=O)cc1[C@@H](N(C)C=O)CC2` , is > 100 µM

TGI recorded for this molecule, N#CC1C2CCC3(CC2CCN1C(=O)c1ccccc1)OCCO3 (stereo not drawn) , is > 100 µM

TGI recorded for this molecule, COC(=O)C1C(OCc2ccccc2)C2CCC1(OC)C=C2C (stereo not drawn) , is > 83.9 µM

TGI recorded for this molecule, CCCCCCCCCCCCCCCCCCOCC(COP(=O)([O-])OCC[N+](C)(C)C)OC (stereo not drawn) , is 10.5 µM

---

system: COLO 205 colon; test: NCI tumour cell line growth inhibition, 48 h; in the data active = GI50 below about 0.43 µM; inactive = the rest
*1 amine or outer side, *2 acyl side, *3 side chain or, on linkers, in order; H or OH if unused. Where a SMILES comes first, the peptide text is derived from it. [ ]: non-standard residue; d: D form. ξ: configuration not given here. X21 = CC[C@@H](C)C(N[*:1])C(=O)[*:2]; ξR = N=C(N)NCCCC(N)C(=O)O; ξI = CCC(C)C(N)C(=O)O; ξL = CC(C)CC(N)C(=O)O; ξK = NCCCCC(N)C(=O)O; ξV = CC(C)C(N)C(=O)O; ξA = CC(N)C(=O)O
Form entry, call: pick from active, inactive

Solved cases (3 shown):
COc1ccc(N(C)c2c3ccccc3nc3[nH]c4ccccc4c23)cc1 ... active
O=C(COc1cccc(/C=C2\CSc3ccccc3C2=O)c1)c1ccc(Cl)cc1 ... inactive
CCSc1nnc(-c2ccc3ccccc3c2O)n1-c1ccc(Cl)cc1 ... inactive

input: Outcome logged for `Fc1ccc2[nH]cc(SSc3c[nH]c4ccc(F)cc34)c2c1` in this assay:
output: inactive

input: Outcome logged for `C1=Nc2ccccc2C=Nc2ccccc2C=Nc2ccccc2C=Nc2ccccc21.[Cl-].[Pt+2]` in this assay:
output: inactive

input: Outcome logged for OCC(O)C(O)C(O)/C=N/Nc1nc2ccccc2nc1-c1ccccc1 (configuration not stated) in this assay:
output: inactive

input: Outcome logged for CCC(C)C1NC(=O)C(CC(C)C)NC(=O)C(C)NC(=O)C(C(C)C)NC(=O)C(CCCCN)NC(=O)C(CC(C)C)NC(=O)C(C(C)C)NC(=O)[C@H](C)NC(=O)C(C(C)CC)NC(=O)C(CCCN=C(N)N)NC(=O)C(CCCCN)NC(=O)C(CCCN=C(N)N)NC(=O)C(CCCCN)NC(=O)C([C@H](C)CC)NC(=O)C(CCCCN)NC1=O (some centres not stated) (cyclo(A[ξV][ξL][ξK][ξV][ξA][ξL][ξI][ξK][X21][ξK][ξR][ξK][ξR][ξI])) in this assay:
output: inactive

---

test system: RXF-631 renal; experiment: NCI tumour cell line growth inhibition, 48 h
property: TGI (µM)
Report as a plain number; the unit µM is understood.

CCN(CC)CCCC(C)NC(=O)c1ccc2c(c1)C(=O)c1ccccc1C2=O (configuration not stated) ... 65.5
S=c1nc(N2CCCCC2)ss1 ... 79.4

Query compound follows.
TGI recorded for this compound, `C1=Nc2ccccc2C=Nc2ccccc2C=Nc2ccccc2C=Nc2ccccc21.[Cl-].[Pt+2]` , is 77.9

---

tested on: DU-145 prostate; test: NCI tumour cell line growth inhibition, 48 h
Label t when TGI is at or above 6 µM; anything below gets f.

Solved cases (3 shown):
O=c1cc(N=Nc2ccc(Cl)cc2)[nH]c(=O)[nH]1 ... t
CCOC(=O)Cn1c(=O)c2cc(-c3ccccc3)cc3c(Cl)nc4c(OC)c(OC)cc1c4c32 ... t
O=C(O)C1CCCCC1c1c2ccc(=O)cc-2oc2cc(O)ccc12 (stereo not given) ... t

input: Say whether `Cn1c(=O)c(Oc2ccccc2)cc2cnc(NC3CCOCC3)nc21` shows TGI of 6 µM or more.
output: t

input: Say whether CC(C)(C)c1ccc(C(C)(C)C)c(N2C(=O)C3ON=C(c4ccc([N+](=O)[O-])cc4)C3C2=O)c1 (stereo not given) shows TGI of 6 µM or more.
output: t

input: Say whether `O=[N+]([O-])c1c2nc3n(c2cc2c1nc1n2CCC1)CCC3` shows TGI of 6 µM or more.
output: t

input: Say whether N#Cc1nc(CCC(c2nc(C#N)c(N)o2)N2C(=O)c3ccccc3C2=O)oc1N (stereo not given) shows TGI of 6 µM or more.
output: t

input: Say whether COc1ccc2c(c1)C1(C(=O)N2)C(C#N)=C(c2ccccc2)Nc2c1c(-c1ccccc1)nn2-c1ccccc1 (stereo not given) shows TGI of 6 µM or more.
output: t

input: Say whether CCCCCCCCCCCCCCCCCCOCC(COP(=O)([O-])OCC[N+](C)(C)C)OC (stereo not given) shows TGI of 6 µM or more.
output: t

input: Say whether `COc1ccc(Oc2nc(C#CC(C)(C)O)nc(Oc3ccc(OC)cc3)n2)cc1` shows TGI of 6 µM or more.
output: t

input: Say whether `O=C(COc1cccc(/C=C2\CSc3ccccc3C2=O)c1)c1ccc(Cl)cc1` shows TGI of 6 µM or more.
output: f

input: Say whether COC(=O)[C@H](Cc1ccccc1)NP(=O)(O)OCC1C=CC(n2cc(C)c(=O)[nH]c2=O)O1 (stereo not given in full) shows TGI of 6 µM or more.
output: t

input: Say whether `CCOc1ccc2nc(NC(NC(=O)c3cccnc3)(C(F)(F)F)C(F)(F)F)sc2c1` shows TGI of 6 µM or more.
output: t

input: Say whether `C=C(C)[C@@H]1CCC2=C[C@H](CC(C)=CC3=CC(C)=C(O3)[C@@H]1OC)OC2=O` shows TGI of 6 µM or more.
output: t

input: Say whether `Clc1ccc(Nc2ccnc(NCCCNc3ccnc4cc(Cl)ccc34)n2)cc1` shows TGI of 6 µM or more.
output: f

input: Say whether O=C(CC1C=CCS1(=O)=O)NCc1ccccc1 (stereo not given) shows TGI of 6 µM or more.
output: t

input: Say whether `N#Cc1ccc2c(c1)C(=O)c1c-2n(CCCN)c(=O)c2cc([N+](=O)[O-])ccc12` shows TGI of 6 µM or more.
output: f

input: Say whether `COc1ccccc1/C=C/C(=O)/C=C/c1ccccc1OC` shows TGI of 6 µM or more.
output: f

input: Say whether `N=c1c2c(=S)n(-c3ccccc3)c(=S)n(-c3ccccc3)c2nc(SCCN2CCOCC2)n1-c1ccccc1` shows TGI of 6 µM or more.
output: f

input: Say whether `N#Cc1c(N)nc(N2CCOCC2)c(C#N)c1-c1ccccc1Cl` shows TGI of 6 µM or more.
output: t
